Values were extracted from the supplement of paper PMC10567573.

Some variants, each annotated with its measured protein stability index.
B1: TLE6 (parent)
chain: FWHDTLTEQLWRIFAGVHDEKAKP

- Variants of: B1
- assayDetails: protein stability index of a GFP-peptide fusion (GPS, HEK-293T) (PSI 1-6); higher = more stable;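 note: lentivirally expressed fusions sorted by FACS into six bins by GFP to DsRed ratio, PSI derived from sequencing read proportions per bin multiplied by bin number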
- protocolConditions: c terminus: a fixed tail appended
Answer as a number with no unit attached.

>  <variantCode>
A22V

>  <endpointValue>
1.8

$$$$

Proceed to the following item.
Could you share which protein stability index value was measured for R12D ?
1.94
